test-summary: Mouse in vivo PK study
study-conditions: mouse, plasma; male CDI mice, IV 1 mg/kg
Text: To determine the drug concentration in plasma of NJB-342, NJB-348 and NJB-463 following intravenous and oral administration in male CDI Mice, to get the pharmacokinetic profile and PK parameters Test animals: healthy male CDI mice (body weight 20-30 g, 18 mice, free access to food and water), provided by Sibeifu laboratory. […]
Structures can show the parent of a compound that is named as a salt.
Form field: clearance (one value per entry).
recorded-metric: clearance (L/h/kg)

- compound: "C=CC(=O)Nc1cc(Nc2nccc(-c3cc(C(N)=O)cc4c3ccn4C)n2)c(OC)cc1N(C)CCN(C)C [Example 34, hydrochloride]"
  recorded-metric: "clearance"
  unit-info: "L/h/kg"
  experimental-result: 6.6
- compound: "C=CC(=O)Nc1cc(Nc2nccc(-n3nc(N(C)C)c4ccccc43)n2)c(OC)cc1N(C)CCN(C)C [Example 42]"
  recorded-metric: "clearance"
  unit-info: "L/h/kg"
  experimental-result: 5.82
- compound: "C=CC(=O)Nc1cc(Nc2nccc(-n3nc(NC)c4ccccc43)n2)c(OC)cc1N(C)CCN(C)C [Example 21]"
  recorded-metric: "clearance"
  unit-info: "L/h/kg"
  experimental-result: 9.76

====

Test system: PC9 cells (SM)
test-summary: PC-9 growth inhibition assay (cell proliferation), Method B
Assay type: cell-based, human
study-conditions: Homo sapiens, PC-9, 72 h, cellular proliferation, several runs
Measured IC50, listed per entry for reference.

- molecule: "C=CC(=O)Nc1cc(Nc2nccc(-c3c[nH]c4c(-c5cc[nH]n5)cccc34)n2)c(OC)cc1N(C)CCN(C)C"
  unit-info: "nM"
  IC50: 21.2
- molecule: "C=CC(=O)Nc1cc(Nc2nccc(-c3c[nH]c(=O)c4c3ccn4C)n2)c(OC)cc1N(C)CCN(C)C"
  unit-info: "nM"
  IC50: 9.9
- molecule: "C=CC(=O)Nc1cc(Nc2nccc(-n3nc(NC4CCOC4)c4ccccc43)n2)c(OC)cc1N(C)CCN(C)C (stereo not shown)"
  unit-info: "nM"
  IC50: 6.46
- molecule: "C=CC(=O)Nc1cc(Nc2nccc(-c3cnc(OC)c4c3ccn4C)n2)c(OC)cc1N(C)CCN(C)C"
  unit-info: "nM"
  IC50: 3.63

====

tested-on: INSR (Homo sapiens, UniProt P06213)
Construct: purchased CARNA BIOSCIENCE 08-142
Sequence (P06213 989-1382 limits assumed): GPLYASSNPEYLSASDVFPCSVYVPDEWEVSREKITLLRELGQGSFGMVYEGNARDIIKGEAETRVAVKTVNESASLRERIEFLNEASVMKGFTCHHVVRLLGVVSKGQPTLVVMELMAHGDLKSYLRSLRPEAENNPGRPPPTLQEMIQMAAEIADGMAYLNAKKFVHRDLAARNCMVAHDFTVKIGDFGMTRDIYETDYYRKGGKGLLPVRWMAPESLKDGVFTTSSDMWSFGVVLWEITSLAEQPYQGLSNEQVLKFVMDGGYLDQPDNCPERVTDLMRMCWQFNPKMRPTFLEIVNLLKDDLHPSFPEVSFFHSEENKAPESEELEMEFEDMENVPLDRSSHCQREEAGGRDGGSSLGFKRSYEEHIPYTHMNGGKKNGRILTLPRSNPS
test-summary: INSR inhibition assay (Caliper EZ Reader)
Assay type: biochemical
study-conditions: enzyme assay
Response field label: string, one of Fulfilled (IC50 strictly below 300 nM) or Not fulfilled.

- smiles-str: "C=CC(=O)Nc1cc(Nc2nccc(-c3c[nH]c4c(C(N)=O)cccc34)n2)c(OC)cc1N(C)CCN(C)C"
  discrete-label: "Fulfilled"
- smiles-str: "C=CC(=O)Nc1cc(Nc2nccc(-c3cc(C#N)c4[nH]cc(C)c4c3)n2)c(OC)cc1N(C)CCN(C)C"
  discrete-label: "Not fulfilled"
- smiles-str: "C=CC(=O)Nc1cc(Nc2nccc(-n3nc(C(C)(C)O)c4ccccc43)n2)c(OC)cc1N(C)CCN(C)C"
  discrete-label: "Not fulfilled"
- smiles-str: "C=CC(=O)Nc1cc(Nc2nccc(-c3cnc(OC)c4c3ccn4C)n2)c(OC)cc1N(C)CCN(C)C"
  discrete-label: "Fulfilled"
- smiles-str: "C=CC(=O)Nc1cc(Nc2nccc(-n3nc(C(N)=O)c4ccccc43)n2)c(OC)cc1N(C)CCN(C)C"
  discrete-label: "Fulfilled"
- smiles-str: "C=CC(=O)Nc1cc(Nc2nccc(-n3nc(N(C)C)c4ccccc43)n2)c(OC)cc1N(C)CCN(C)C"
  discrete-label: "Not fulfilled"
- smiles-str: "C=CC(=O)Nc1cc(Nc2nccc(-n3nc(NC)c4ncccc43)n2)c(OC)cc1N(C)CCN(C)C"
  discrete-label: "Not fulfilled"
- smiles-str: "C=CC(=O)Nc1cc(Nc2nccc(-c3cnc(NC)c(C(C)=O)c3)n2)c(OC)cc1N(C)CCN(C)C"
  discrete-label: "Not fulfilled"
- smiles-str: "C=CC(=O)Nc1cc(Nc2nccc(-n3cc(C(C)=O)c4ccccc43)n2)c(OC)cc1N(C)CCN(C)C"
  discrete-label: "Not fulfilled"
- smiles-str: "C=CC(=O)Nc1cc(Nc2nccc(-n3cc(C(=O)O)c4ccccc43)n2)c(OC)cc1N(C)CCN(C)C"
  discrete-label: "Fulfilled"
- smiles-str: "C=CC(=O)Nc1cc(Nc2nccc(-c3c[nH]c4c(OC)nccc34)n2)c(OC)cc1N(C)CCN(C)C"
  discrete-label: "Not fulfilled"
